Would you mind telling me the reported pIC50 of each entry?
# Target System: Human HDAC6 (Homo sapiens)
# Construct: Full length with N-terminal GST tag, MW=159 kDa; GST (N)
# Sequence (Q9UBN7 1-1215): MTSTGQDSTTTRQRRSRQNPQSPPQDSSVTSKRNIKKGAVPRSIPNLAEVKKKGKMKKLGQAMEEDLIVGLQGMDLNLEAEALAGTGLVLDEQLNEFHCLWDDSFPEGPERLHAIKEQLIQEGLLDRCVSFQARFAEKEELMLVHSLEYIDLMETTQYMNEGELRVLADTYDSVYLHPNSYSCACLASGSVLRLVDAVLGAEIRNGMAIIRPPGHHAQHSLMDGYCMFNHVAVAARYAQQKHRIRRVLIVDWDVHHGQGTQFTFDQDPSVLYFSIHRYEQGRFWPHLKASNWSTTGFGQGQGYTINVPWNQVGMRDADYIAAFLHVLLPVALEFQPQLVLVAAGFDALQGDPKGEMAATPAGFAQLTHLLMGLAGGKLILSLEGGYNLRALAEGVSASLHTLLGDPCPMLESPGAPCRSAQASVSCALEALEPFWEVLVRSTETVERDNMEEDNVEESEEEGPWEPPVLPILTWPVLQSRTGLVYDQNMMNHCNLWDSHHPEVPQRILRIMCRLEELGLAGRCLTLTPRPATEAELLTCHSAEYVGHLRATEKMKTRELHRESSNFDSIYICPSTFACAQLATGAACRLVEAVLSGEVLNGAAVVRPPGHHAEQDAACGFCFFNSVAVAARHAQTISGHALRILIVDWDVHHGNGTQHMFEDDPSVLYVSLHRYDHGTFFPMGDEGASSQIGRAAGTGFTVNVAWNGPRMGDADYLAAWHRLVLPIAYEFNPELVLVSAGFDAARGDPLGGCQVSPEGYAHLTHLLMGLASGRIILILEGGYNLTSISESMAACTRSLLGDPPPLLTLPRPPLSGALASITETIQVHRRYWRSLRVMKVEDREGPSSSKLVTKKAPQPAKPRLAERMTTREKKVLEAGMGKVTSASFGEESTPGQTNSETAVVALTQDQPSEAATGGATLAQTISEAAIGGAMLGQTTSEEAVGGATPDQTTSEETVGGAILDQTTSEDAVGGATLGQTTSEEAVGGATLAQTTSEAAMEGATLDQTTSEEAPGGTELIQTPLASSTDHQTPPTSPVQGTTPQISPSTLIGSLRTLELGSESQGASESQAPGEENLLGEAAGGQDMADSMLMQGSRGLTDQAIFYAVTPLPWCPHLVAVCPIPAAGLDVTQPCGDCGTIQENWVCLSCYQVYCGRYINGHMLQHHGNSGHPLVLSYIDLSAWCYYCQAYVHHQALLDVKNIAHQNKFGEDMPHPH
# Test Name: In vitro HDAC inhibition assay, HDAC6
# Study Conditions: read-out: HDAC isoform IC50, HDAC6
Give bare numbers, as −log10 of the molar value.

O=C(CCCc1cc(C(=O)NO)no1)Nc1nc(-c2ccccc2)cs1 [Compound 2] : 7.09
O=C(NC(Cc1cc(C(=O)NO)no1)Cc1c[nH]c2ccccc12)c1ccc(Cl)cc1 (stereo not shown) [Compound 19] : 6.37
CC(C)(C)OC(=O)Nc1ccc(-c2cc(C(=O)NCc3ccc(C(=O)NO)cc3)no2)cc1 [Compound 15] : 9.48

Now look at this one.
Note to self: pIC50 of O=C(NO)c1ccc(CNC(=O)c2cc(-c3ccc(NC(=O)C4CCCCC4)cc3)on2)cc1 [Compound 16] with Human HDAC6 (Homo sapiens) was 8.27
